Catalogue of Fbg readings, one per entry.
organism: Rattus norvegicus; experiment: Open TG-GATES - Regimen: Single; format: toxicity, organism-based, Sprague-Dawley; design: regimen Single, gender Male, age 6 weeks; conditions: in vivo, po, 0 mg/kg, 24 h, tissue Blood, route gavage, dose level Control
endpoint: Fbg (mg/dL)

{"columns": ["compound", "unit_descriptor", "endpoint_result"],
 "data": [
  ["CN(C/C=C/C#CC(C)(C)C)Cc1cccc2ccccc12", "mg/dL", 236.8],
  ["CCCCNC(=O)NS(=O)(=O)c1ccc(C)cc1 [TOLBUTAMIDE]", "mg/dL", 296],
  ["CC(=O)[C@@]1(O)CC[C@H]2[C@@H]3C=C(Cl)C4=CC(=O)CC[C@]4(C)[C@H]3CC[C@@]21C", "mg/dL", 308.8],
  ["Nc1ccc(Cc2ccc(N)cc2)cc1", "mg/dL", 258.8]
]}
